# assayedSystem: D(2) dopamine receptor (Rattus norvegicus)
# Sequence (P61169 whole entry): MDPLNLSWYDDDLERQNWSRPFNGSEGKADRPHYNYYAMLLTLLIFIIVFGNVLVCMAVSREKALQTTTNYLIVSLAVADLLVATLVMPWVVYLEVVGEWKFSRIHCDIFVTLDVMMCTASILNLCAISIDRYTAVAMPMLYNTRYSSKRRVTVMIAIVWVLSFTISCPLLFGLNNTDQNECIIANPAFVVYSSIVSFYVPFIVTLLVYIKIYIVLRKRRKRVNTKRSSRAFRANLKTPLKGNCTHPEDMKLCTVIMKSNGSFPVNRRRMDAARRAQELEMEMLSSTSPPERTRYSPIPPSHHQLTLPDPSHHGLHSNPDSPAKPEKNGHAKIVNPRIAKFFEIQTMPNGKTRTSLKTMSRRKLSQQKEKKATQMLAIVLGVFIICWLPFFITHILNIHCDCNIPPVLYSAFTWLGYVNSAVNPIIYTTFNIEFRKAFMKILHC
# experimentSummary: In vitro binding affinity for dopamine receptor D2 on rat striatal membranes by [3H]spiperone displacement.
# Design: species or system Striatum, Membrane
Mark Satisfied only when Ki stays strictly below 100 nM. Values equal to the cut-off are Not satisfied.

molecule	groupLabel
Oc1ccc2[nH]cc(CCCCN3CC=C(c4ccccc4)CC3)c2c1	Satisfied
c1ccc(N2CCN(CC[C@H]3CC[C@H](c4c[nH]c5ccccc54)CC3)CC2)cc1	Not satisfied
Oc1ccc2[nH]cc([C@H]3CC[C@H](CCN4CCN(c5ccccn5)CC4)CC3)c2c1	Satisfied
c1ccc(N2CCN(C[C@H]3CC[C@H](c4c[nH]c5ccccc54)CC3)CC2)nc1	Satisfied
C1=C(c2c[nH]c3ccccc23)CCC(CCN2CCN(c3ccccn3)CC2)C1 (stereo not drawn)	Not satisfied
c1ccc(N2CCN(C[C@H]3CC[C@@H](c4c[nH]c5ccccc54)CC3)CC2)nc1	Not satisfied
C1=C(c2ccccc2)CCN(CC[C@H]2CC[C@H](c3c[nH]c4ccccc43)CC2)C1	Satisfied
Cn1cc([C@H]2CC[C@H](CCN3CCN(c4ccccn4)CC3)CC2)c2ccccc21	Satisfied
Fc1ccc2[nH]cc([C@H]3CC[C@H](CCN4CCN(c5ccccn5)CC4)CC3)c2c1	Not satisfied
C1=C(c2ccccc2)CC[C@H](CCN2CCN(c3ccccn3)CC2)C1	Not satisfied
c1cnc(N2CCN(CC[C@H]3CC[C@H](c4c[nH]c5ccccc54)CC3)CC2)nc1	Not satisfied
C1=C(c2cccs2)CCN(CC[C@H]2CC[C@H](c3c[nH]c4ccccc43)CC2)C1	Not satisfied
C1=C(c2ccccc2)CCN(CC[C@H]2CC[C@@H](c3c[nH]c4ccccc43)CC2)C1	Satisfied
c1ccc(N2CCN(CC[C@H]3CC[C@H](c4c[nH]c5ccccc54)CC3)CC2)nc1	Satisfied
c1ccc(N2CCN(CC[C@H]3CC[C@@H](c4c[nH]c5ccccc54)CC3)CC2)nc1	Not satisfied
COc1ccc2[nH]cc([C@H]3CC[C@H](CCN4CCN(c5ccccn5)CC4)CC3)c2c1	Satisfied
Fc1ccc(N2CCN(CC[C@H]3CC[C@H](c4c[nH]c5ccccc54)CC3)CC2)cc1	Not satisfied
c1ccc(N2CCN([C@H]3CC[C@H](c4c[nH]c5ccccc54)CC3)CC2)nc1	Not satisfied
